Biological target: RXRα Retinoid (Homo sapiens, UniProt P19793)
Sequence (P19793 1-462): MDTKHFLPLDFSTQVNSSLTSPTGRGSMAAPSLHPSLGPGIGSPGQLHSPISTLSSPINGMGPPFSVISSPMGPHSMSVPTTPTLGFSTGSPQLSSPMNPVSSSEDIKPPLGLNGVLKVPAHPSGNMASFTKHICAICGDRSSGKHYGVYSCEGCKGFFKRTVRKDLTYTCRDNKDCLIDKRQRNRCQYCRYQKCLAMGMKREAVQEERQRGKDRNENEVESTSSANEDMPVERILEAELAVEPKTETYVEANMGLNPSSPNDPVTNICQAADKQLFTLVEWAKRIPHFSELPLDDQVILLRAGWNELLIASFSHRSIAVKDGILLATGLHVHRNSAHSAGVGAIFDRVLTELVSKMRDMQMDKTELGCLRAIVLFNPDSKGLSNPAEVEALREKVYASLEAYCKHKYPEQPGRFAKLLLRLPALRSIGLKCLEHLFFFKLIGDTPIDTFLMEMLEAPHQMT
pKi: −log10 of the molar value.
value-kind: pKi

Entry COc1cccc(OC)c1NC(=O)c1ccc(Cc2cc3c(cc2C)C(C)(C)CCC3(C)C)o1 [Compound 20] has what pKi?
< 5.00
